Tested on: Alopecurus myosuroides (ALOMY)
ASSAY_REMARKS: Pre-emergence herbicide efficacy at 80 g/ha, greenhouse pot test
Format: in vivo
CONDITIONS: visual scoring vs untreated control after about 3 weeks
VALUE_KIND: Pre-emergence efficacy against Alopecurus myosuroides (ALOMY) (%)
Supply the numeric figure in %, leaving out any unit text.

| MOLECULE | TEST_VALUE |
| --- | --- |
| Cc1cc(C)c(-c2cc(C(F)(F)Cl)no2)c(Oc2ncc(Cl)cn2)n1 | 90 |
| Cc1cc(C)c(-c2cc(C(F)F)no2)c(Oc2ncc(Cl)cn2)n1 | 90 |
| Cc1cc(C)c(-c2cc(C(F)F)no2)c(Oc2ncc(F)cn2)n1 | 90 |
| Cc1cc(C)c(-c2cc(C(F)(F)F)on2)c(Oc2ncc(Cl)cn2)n1 | 100 |
| Cc1cc(C)c(-n2cc(Br)cn2)c(Oc2ncc(F)cn2)n1 | 80 |
| Cc1cc(C)c(-c2cc(C(F)F)no2)c(Oc2ccc(C#N)cn2)n1 | 80 |
| Cc1cc(C)c(-c2cc(C(F)F)no2)c(Oc2ncc(Br)cn2)n1 | 80 |
| Cc1cc(C)c(-n2cc(I)cn2)c(Oc2ncc(F)cn2)n1 | 90 |
| Cc1cc(C)c(-c2cc(C(F)(F)F)no2)c(Oc2ncc(Cl)cn2)n1 | 80 |
| Cc1cc(C)c(-c2cc(C(F)F)no2)c(Oc2ccc(F)cn2)n1 | 90 |

Reported Pre-emergence efficacy against Alopecurus myosuroides (ALOMY), molecule Cc1cc(C)c(-c2cc(C(F)Cl)no2)c(Oc2ncc(Cl)cn2)n1 (centres unmarked) : ____
90
